Data credit: patent US20250049896A1

# Target Under Test: T1, hmm.hTfRC (REGN2431), human transferrin receptor extracellular domain with hexahistidine-myc-myc tag (human, UniProt P02786 89-760)
# T1 construct: Monomeric recombinant protein, 79210 g/mol; also called hTFR-mmh; His-myc-myc-hTFRC ecto
# T1 sequence (P02786 other isoform, or with tags, fused parts or gaps): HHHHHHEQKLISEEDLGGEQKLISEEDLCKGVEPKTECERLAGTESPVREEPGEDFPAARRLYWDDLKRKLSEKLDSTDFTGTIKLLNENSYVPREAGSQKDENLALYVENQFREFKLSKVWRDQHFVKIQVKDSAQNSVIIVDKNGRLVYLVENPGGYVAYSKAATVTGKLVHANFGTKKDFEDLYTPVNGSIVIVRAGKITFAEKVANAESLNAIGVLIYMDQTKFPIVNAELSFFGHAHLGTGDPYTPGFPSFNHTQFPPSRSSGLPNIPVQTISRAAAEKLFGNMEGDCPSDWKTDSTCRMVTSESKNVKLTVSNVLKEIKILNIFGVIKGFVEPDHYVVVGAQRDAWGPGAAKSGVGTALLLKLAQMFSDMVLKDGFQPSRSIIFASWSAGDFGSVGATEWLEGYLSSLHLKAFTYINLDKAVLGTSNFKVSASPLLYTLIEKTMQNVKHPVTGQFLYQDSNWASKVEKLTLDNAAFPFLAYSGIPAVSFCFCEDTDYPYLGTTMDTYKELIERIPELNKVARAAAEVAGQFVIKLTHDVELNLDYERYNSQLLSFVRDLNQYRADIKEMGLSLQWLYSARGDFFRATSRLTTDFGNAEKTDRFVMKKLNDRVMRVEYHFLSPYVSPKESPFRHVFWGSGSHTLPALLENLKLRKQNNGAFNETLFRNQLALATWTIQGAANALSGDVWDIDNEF
# Experiment Description: SPR (Biacore), mAb captured on anti-human Fc, 100 nM hTFR-mmh, 25 C
A collection of binders and their measured 100 nM Ag Bound (RU)
Enter your answer as a number in RU; do not include the unit.

Given the binder 12801B (antibody, human IgG1, kappa, V domains shown, Tested as bivalent human IgG1 from CHO primary supernatant) VH: EVQLLESGGALVQPGGSLRLSCAASGFTFTSYAMHWVRQAPGKGLEWVSSIRGSGGGTYSADSVKGRFTISRDNSRDTLYLQMNSVRAEDTAVYYCARSHDYGAFDFFDYWGQGTLVTVSS VL: DIQMTQSPSSLSASVGDRVTITCRASQGIRTDLGWYQQKPGKAPKRLIYAASSLQSGVPSRFSGSGSGTEFTLTISSLRPEDFATFYCLQYNSYPLTFGGGTKVEIKR , what is its reported 100 nM Ag Bound (RU)?
598
